The measurements presented in this section are drawn from paper PMC10828496.

Target: T1, METTL15 K380A/K381A (Homo sapiens, UniProt A6NJ78 70-407, K380A;K381A)
T1 sequence: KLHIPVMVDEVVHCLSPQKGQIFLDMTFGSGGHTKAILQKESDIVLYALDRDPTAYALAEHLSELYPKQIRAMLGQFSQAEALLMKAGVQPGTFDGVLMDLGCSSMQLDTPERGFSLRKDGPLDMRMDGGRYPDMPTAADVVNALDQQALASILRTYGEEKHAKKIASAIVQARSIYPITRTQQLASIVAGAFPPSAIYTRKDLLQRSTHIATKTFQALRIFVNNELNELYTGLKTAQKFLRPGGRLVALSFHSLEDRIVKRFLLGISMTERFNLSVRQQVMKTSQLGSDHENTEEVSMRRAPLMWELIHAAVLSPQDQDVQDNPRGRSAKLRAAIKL
Assay: fluorescence polarization; FP: dilution buffer B (50 mM Na2HPO4, 150 mM NaCl, pH 7.0), 20 C, 15 min incubation, 80 nM FAM-RNA stock mixed 1:1 (40 nM final); 1:1 binding model
Conditions: protein: recombinant; tags: SUMO tag removed (ULP1); label: 5'-FAM; hairpin
parameter: Kd (nM)

# binder, testValue
rows = [
    ("CGACCGCCCGUAACGGUCG (structured_RNA) [5'-FAM-h44_dsRNA1]", 2680),
]
